Where these numbers come from: paper PMC10196118

- Study target: HLA DRB1*08:02 (Homo sapiens, UniProt P01903+P01911, A100R/A103L/A169T/F76Y/H45Y/I96F/K41T/L162R/M171V/P40S/Q125H/Q178H/Q39Y/Q99D/R218S/R42G/S66Y/V115G/W38E)
- Assay details: biochemical
- Assay type: binding
- Condition set: binder threshold 1,000 nM, read-out: In vitro (IC50 nM) DRB1*08:02
Recorded IC50, one value per entry.
Endpoint: IC50 (nM)

[[record]]
molecule = "CC[C@H](C)[C@H](NC(=O)[C@@H]1CCCN1C(=O)[C@H](CCSC)NC(=O)[C@@H](N)CC(C)C)C(=O)N[C@@H](CC(C)C)C(=O)N[C@H](C(=O)N[C@@H](CC(C)C)C(=O)N[C@H](C(=O)N[C@@H](CCCNC(=N)N)C(=O)N[C@@H](C)C(=O)N[C@@H](CC(C)C)C(=O)N[C@H](C(=O)N[C@@H](C)C(=O)N[C@@H](CCC(=O)O)C(=O)N[C@@H](CO)C(=O)O)[C@@H](C)O)[C@@H](C)O)[C@@H](C)O [NSP12_49]"
value_units = "nM"
reported = 283

[[record]]
molecule = "CC[C@H](C)[C@H](NC(=O)[C@@H](NC(=O)[C@@H]1CCCN1C(=O)[C@@H](NC(=O)[C@@H](NC(=O)[C@H](CC(N)=O)NC(=O)[C@H](CCCNC(=N)N)NC(=O)[C@H](CCCCN)NC(=O)[C@@H](NC(=O)[C@H](Cc1ccc(O)cc1)NC(=O)[C@H](C)NC(=O)[C@H](Cc1ccccc1)NC(=O)[C@H](CC(C)C)NC(=O)[C@H](C)N)[C@@H](C)O)C(C)C)[C@@H](C)CC)[C@@H](C)O)C(=O)N[C@H](C(=O)O)[C@@H](C)O [NSP12_106]"
value_units = "nM"
reported = 190

[[record]]
molecule = "CSCC[C@H](NC(=O)[C@@H](NC(=O)[C@@H]1CCCN1C(=O)[C@H](CC(C)C)NC(=O)[C@H](CC(N)=O)NC(=O)[C@H](Cc1ccc(O)cc1)NC(=O)[C@H](CCCNC(=N)N)NC(=O)[C@H](Cc1ccc(O)cc1)NC(=O)[C@H](Cc1ccc(O)cc1)NC(=O)[C@H](CC(=O)O)NC(=O)[C@H](Cc1ccc(O)cc1)NC(=O)[C@H](CC(=O)O)NC(=O)[C@@H](N)CO)[C@@H](C)O)C(=O)N[C@@H](CS)C(=O)N[C@@H](CC(=O)O)C(=O)O [Peptide 91]"
value_units = "nM"
reported = 3510

[[record]]
molecule = "CC(C)C[C@H](NC(=O)[C@H](C)NC(=O)[C@H](CC(=O)O)NC(=O)[C@H](CCC(N)=O)NC(=O)[C@H](CC(=O)O)NC(=O)[C@H](CCC(=O)O)NC(=O)[C@@H](N)Cc1ccc(O)cc1)C(=O)N[C@@H](Cc1ccccc1)C(=O)N[C@@H](C)C(=O)N[C@@H](Cc1ccc(O)cc1)C(=O)N[C@H](C(=O)N[C@@H](CCCCN)C(=O)N[C@@H](CCCNC(=N)N)C(=O)N[C@@H](CC(N)=O)C(=O)N[C@H](C(=O)O)C(C)C)[C@@H](C)O [Peptide 105]"
value_units = "nM"
reported = 495

[[record]]
molecule = "CSCC[C@H](NC(=O)[C@H](CO)NC(=O)[C@H](Cc1ccccc1)NC(=O)[C@H](Cc1c[nH]cn1)NC(=O)[C@H](CCCCN)NC(=O)[C@H](CCCNC(=N)N)NC(=O)[C@H](CC(C)C)NC(=O)[C@H](Cc1ccc(O)cc1)NC(=O)[C@H](C)NC(=O)[C@H](Cc1ccc(O)cc1)NC(=O)[C@H](Cc1ccccc1)NC(=O)[C@H](CCC(=O)O)NC(=O)[C@H](CC(N)=O)NC(=O)[C@@H](NC(=O)[C@@H](N)Cc1ccccc1)C(C)C)C(=O)O [NSP12_149]"
value_units = "nM"
reported = 828

[[record]]
molecule = "CC(C)C[C@H](NC(=O)[C@H](Cc1ccc(O)cc1)NC(=O)[C@H](C)NC(=O)[C@H](Cc1ccc(O)cc1)NC(=O)[C@H](Cc1ccccc1)NC(=O)[C@H](CCC(=O)O)NC(=O)[C@H](CC(N)=O)NC(=O)[C@@H](NC(=O)[C@H](Cc1ccccc1)NC(=O)[C@H](CC(=O)O)NC(=O)[C@@H](NC(=O)[C@H](CC(=O)O)NC(=O)[C@@H](NC(=O)[C@@H](N)CC(=O)O)C(C)C)[C@@H](C)O)C(C)C)C(=O)N[C@@H](CCCNC(=N)N)C(=O)O [Peptide 148]"
value_units = "nM"
reported = 2200

[[record]]
molecule = "CC[C@H](C)[C@H](NC(=O)[C@H](CCSC)NC(=O)[C@H](CCSC)NC(=O)[C@H](CO)NC(=O)[C@H](Cc1ccccc1)NC(=O)[C@H](Cc1c[nH]cn1)NC(=O)[C@H](CCCCN)NC(=O)[C@H](CCCNC(=N)N)NC(=O)[C@H](CC(C)C)NC(=O)[C@H](Cc1ccc(O)cc1)NC(=O)[C@H](C)NC(=O)[C@@H](N)Cc1ccc(O)cc1)C(=O)N[C@@H](CC(C)C)C(=O)N[C@@H](CO)C(=O)N[C@@H](CC(=O)O)C(=O)O [Peptide 150]"
value_units = "nM"
reported = 138

[[record]]
molecule = "CC(C)C[C@H](NC(=O)[C@H](CCCNC(=N)N)NC(=O)[C@H](Cc1ccc(O)cc1)NC(=O)[C@H](Cc1ccccc1)NC(=O)[C@@H](N)CCCNC(=N)N)C(=O)N[C@@H](C)C(=O)N[C@@H](CC(N)=O)C(=O)N[C@@H](CCC(=O)O)C(=O)N[C@@H](CS)C(=O)N[C@@H](C)C(=O)N[C@@H](CCC(N)=O)C(=O)N[C@H](C(=O)N[C@@H](CC(C)C)C(=O)N[C@@H](CO)C(=O)N[C@@H](CCC(=O)O)C(=O)O)C(C)C [NSP12_131]"
value_units = "nM"
reported = 2350

[[record]]
molecule = "CC[C@H](C)[C@H](NC(=O)[C@@H]1CCCN1C(=O)[C@H](CCSC)NC(=O)[C@H](CC(C)C)NC(=O)[C@H](CC(C)C)NC(=O)[C@H](CO)NC(=O)[C@H](Cc1ccc(O)cc1)NC(=O)[C@H](Cc1ccc(O)cc1)NC(=O)[C@@H](N)CO)C(=O)N[C@@H](CC(C)C)C(=O)N[C@H](C(=O)N[C@@H](CC(C)C)C(=O)N[C@H](C(=O)N[C@@H](CCCNC(=N)N)C(=O)N[C@@H](C)C(=O)O)[C@@H](C)O)[C@@H](C)O [NSP12_48]"
value_units = "nM"
reported = 498

[[record]]
molecule = "CC(C)C[C@H](NC(=O)[C@H](CCCNC(=N)N)NC(=O)[C@H](Cc1ccc(O)cc1)NC(=O)[C@H](Cc1ccccc1)NC(=O)[C@H](CCCNC(=N)N)NC(=O)[C@H](Cc1c[nH]cn1)NC(=O)[C@H](CO)NC(=O)[C@H](CC(C)C)NC(=O)[C@H](CO)NC(=O)[C@H](CS)NC(=O)[C@H](CS)NC(=O)[C@@H](NC(=O)[C@@H](NC(=O)[C@H](Cc1c[nH]cn1)NC(=O)[C@@H](N)CCCCN)[C@@H](C)O)[C@@H](C)O)C(=O)O [NSP12_129]"
value_units = "nM"
reported = 1010

